This collection of values is drawn from patent US12655127B2.

Tested on: MIA PaCa-2 cells
assay: In-vitro anti-proliferative activity in combination with gemcitabine on MIA PaCa-2 cells
Assay type: cell-based
measurement-context: with 20 nM gemcitabine, 72 h after dosing, intracellular ATP content
So basically: is IC50 under 2 nM? Then TRUE. Not under? Then FALSE.

Enquiry: Just wondering, is IC50 of CN1Cc2cc(Nc3ncc(C#N)c(Nc4cccc(N=S(C)(C)=O)n4)n3)cc3c2C(CCO3)C1 (stereo not shown) [Compound 64] below 2 nM?
Return: FALSE

Enquiry: Just wondering, is IC50 of CN1Cc2cc(Nc3ncc(C#N)c(Nc4cc5ccccc5c(N=S(C)(C)=O)n4)n3)cc3c2C(CCC3)C1 (stereo not shown) [Compound 108] below 2 nM?
Return: FALSE

Enquiry: Just wondering, is IC50 of CN1Cc2cc(Nc3ncc(C#N)c(Nc4cccc(N=S(C)(C)=O)n4)n3)cc3c2C(CCC3)C1 (stereo not shown) [Compound 1] below 2 nM?
Return: TRUE

Enquiry: Just wondering, is IC50 of COc1c(Nc2ncc(C#N)c(Nc3cccc(N=S(C)(C)=O)n3)n2)cc2c3c1CCCC3CN(C)C2 (stereo not shown) [Compound 49] below 2 nM?
Return: FALSE

Enquiry: Just wondering, is IC50 of CN1Cc2cc(Nc3ncc(C#N)c(Nc4cccc(N=S(C)(C)=O)n4)n3)cc3c2C1CCC3 (stereo not shown) [Compound 87] below 2 nM?
Return: TRUE

Enquiry: Just wondering, is IC50 of CN1Cc2cc(Nc3ncc(C#N)c(Nc4cncc(N=S(C)(C)=O)n4)n3)cc3c2C(CCC3)C1 (stereo not shown) [Compound 105] below 2 nM?
Return: FALSE

Enquiry: Just wondering, is IC50 of CN1Cc2cc(Nc3ncc(C#N)c(Nc4cccc(N=S(C)(C)=O)n4)n3)cc3c2C(C)(CCC3)C1 (stereo not shown) [Compound 4] below 2 nM?
Return: FALSE
